TARGET_DESC: Gal(b1-3)GlcNAc(b1-2)Man
PROCEDURE_TEXT: glycan array binding signal (z-score within array); higher = stronger binding
CONDITION_DESCRIPTION: glycan notation: IUPAC condensed, linker removed
Only a selection was taken, and the strongest signals are over-represented in it overall.
QUANTITY: glycan array binding signal (z-score)
Numbers only.

Q. I would be grateful if you could share the reported glycan array binding signal (z-score) for DC-ASGPR Long (Homo sapiens) (protein) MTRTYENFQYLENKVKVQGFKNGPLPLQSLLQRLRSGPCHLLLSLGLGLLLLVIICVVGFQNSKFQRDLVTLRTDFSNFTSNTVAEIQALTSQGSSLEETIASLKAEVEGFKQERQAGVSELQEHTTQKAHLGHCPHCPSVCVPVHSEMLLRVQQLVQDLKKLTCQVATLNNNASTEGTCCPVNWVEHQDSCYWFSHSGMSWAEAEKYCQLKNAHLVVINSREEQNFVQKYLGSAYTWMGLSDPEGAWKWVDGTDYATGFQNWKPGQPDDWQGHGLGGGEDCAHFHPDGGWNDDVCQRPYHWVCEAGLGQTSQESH .
A. -0.186
